- Test system: brain
- procedure.summary: Matured TTM-001 and TTM-002 variants, NGS enrichment in mouse brain
- Format: in vivo, mice
- particulars: mouse brain; relative to AAV9 control
I'd appreciate it if you could supply Fold Enrichment relative to AAV9, Brain (Mouse) values for the items below.
Give the value in fold but do not write fold after it.

**Q:** Could you share what Fold Enrichment relative to AAV9, Brain (Mouse) was measured for `KEVVGSGSPHSKAQNQQT` , tested on brain?
**A:** 116.964

**Q:** Now consider `KTEVTSGSPHSKAQNQQT` and answer again.
**A:** 81.482

**Q:** Now consider `KTDRSSGSPHSKAQNQQT` and answer again.
**A:** 123.421

**Q:** Now consider `KTDVGSGSPHSKAQNQQT` and answer again.
**A:** 115.774

**Q:** Now consider `KTINGSGSPHSKAGDSQT` and answer again.
**A:** 74.355

**Q:** Now consider `KTINGSGSPHSKAQRMST` and answer again.
**A:** 53.414

**Q:** Now consider `KTIPAIGSPHSKAQNQQT` and answer again.
**A:** 51.949

**Q:** Now consider `KTINGSGSPHSKAQGILT` and answer again.
**A:** 102.631

**Q:** Now consider `KTINGSGSPHSKAQGAIT` and answer again.
**A:** 95.696

**Q:** Now consider `KTSNGSGSPHSKAHYQQT` and answer again.
**A:** 54.162

**Q:** Now consider `KTIPKNGSPHSKAQNQQT` and answer again.
**A:** 77.458

**Q:** Now consider `KSELGSGSPHSKAQNQQT` and answer again.
**A:** 120.521

**Q:** Now consider `KTFNGGGSPHSKAQYQQT` and answer again.
**A:** 72.618

**Q:** Now consider `KTINGSGSPHSKAQAIHT` and answer again.
**A:** 81.908

**Q:** Now consider `KTIDGSGSPHSKSQNHQT` and answer again.
**A:** 63.174

**Q:** Now consider `KAEIGHDSPHKSGQNQQT` and answer again.
**A:** 27.173

**Q:** Now consider `KTVNGSGSPHSKAQSLQT` and answer again.
**A:** 69.033

----------
- Test system: brains, heart, liver, muscle, and DRG of the NHPs
- procedure.summary: Maturation of TTM-001 and TTM-002 capsids, NGS enrichment in NHP tissues
- Type: in vivo
- particulars: NGS fold-enrichment, muscle of NHPs, relative to AAV9 control
observation.type: Fold Enrichment relative to AAV9, Muscle (NHP) (fold)
Give the value in fold but do not write fold after it.

**Q:** Which Fold Enrichment relative to AAV9, Muscle (NHP) value is on record for `KSDQGSGSPHSKAQNQQT` ?
**A:** 0.000

**Q:** Now consider `KTESWSGSPHSKAQNQQT` and answer again.
**A:** 0.000

**Q:** Now consider `KTERNSGSPHSKAQNQQT` and answer again.
**A:** 0.000

**Q:** Now consider `KTINGGGSPHSKALNQQN` and answer again.
**A:** 0.000

**Q:** Now consider `KTEKISGSPHSKAQNQQT` and answer again.
**A:** 0.000

**Q:** Now consider `KTINGSGSPHSKAQTPPT` and answer again.
**A:** 0.014

**Q:** Now consider `KTVNGNGSPHSKAQNHQT` and answer again.
**A:** 0.000

**Q:** Now consider `KTEARSGSPHSKAQNQQT` and answer again.
**A:** 0.000

**Q:** Now consider `KTITGSGSPHSKAQTQLT` and answer again.
**A:** 0.000

**Q:** Now consider `KTVIGSGSPHSKALNQQT` and answer again.
**A:** 0.000

**Q:** Now consider `KTINGLGSPHSKSQNQQT` and answer again.
**A:** 0.000

**Q:** Now consider `KTFNGSGSPHSKAPNLQT` and answer again.
**A:** 0.000

**Q:** Now consider `KTEKASGSPHSKAQNQQT` and answer again.
**A:** 0.000

**Q:** Now consider `KNINGSGSPHSKAQSQQT` and answer again.
**A:** 0.000

**Q:** Now consider `KTEKGSGSPHSKAQNQQT` and answer again.
**A:** 0.000

**Q:** Now consider `KTDRMSGSPHSKAQNQQT` and answer again.
**A:** 0.000

**Q:** Now consider `KNHIGSGSPHSKAQNQQT` and answer again.
**A:** 0.000

**Q:** Now consider `KAIKGSGSPHSKAQDQQT` and answer again.
**A:** 0.000

**Q:** Now consider `KTFNGSGSPHNKAQNHQT` and answer again.
**A:** 0.035

**Q:** Now consider `KTINGSGSPHSKAQDRPT` and answer again.
**A:** 0.000

**Q:** Now consider `KTINGSGSPHSKAQPPAT` and answer again.
**A:** 0.031

**Q:** Now consider `KTSNASGSPHSKAHNQQT` and answer again.
**A:** 0.067

**Q:** Now consider `KTFNASGSPHSKAPNQQT` and answer again.
**A:** 0.000

**Q:** Now consider `KTINGSGSPHSKAQSPPT` and answer again.
**A:** 0.274

**Q:** Now consider `KTINGGGSPHSKAQNQQC` and answer again.
**A:** 0.000

**Q:** Now consider `KTINGGGSPHSKAQTQQI` and answer again.
**A:** 0.000

**Q:** Now consider `KTINGSGSPHSKAQAKLT` and answer again.
**A:** 0.017

**Q:** Now consider `KTINGSGSPHSKRPEQQT` and answer again.
**A:** 0.000

**Q:** Now consider `KTIPIDGSPHSKAQNQQT` and answer again.
**A:** 0.000

**Q:** Now consider `KTESASGSPHSKAQNQQT` and answer again.
**A:** 0.000

**Q:** Now consider `KTELTSGSPHSKAQNQQT` and answer again.
**A:** 0.000

**Q:** Now consider `KTENTSGSPHSKAQNQQT` and answer again.
**A:** 0.218

**Q:** Now consider `KTINGGGSPHSKAQSQQI` and answer again.
**A:** 0.000

**Q:** Now consider `KTEKNSGSPHSKAQNQQT` and answer again.
**A:** 0.044

**Q:** Now consider KTINGSVSPHGKAQNQLT (peptide inserted in AAV capsid) and answer again.
**A:** 0.067
